# protocol_text: Pharmacokinetic (HPLC) analysis of resected xenograft tumors
# Assay type: in vivo, nude mice
# condition_info: female, CAnN.Cg-Foxn1nu/Crl nude, mouse, tumor (WM983-B human melanoma xenograft, oral, 2 g of anle138b/kg of food pellets); tumor from right dorsal side (57 mg); food pellets with 2 g/kg for seven days; read-out: level in the tumor
reported_property: concentration at 7 days (µM)
# number only, unit µM dropped from output

State the recorded concentration at 7 days for this entry: Brc1cccc(-c2cc(-c3ccc4c(c3)OCO4)n[nH]2)c1 [anle138b]
125

---

# protocol_text: Pharmacokinetic (HPLC) analysis of resected xenograft tumors
# Assay type: in vivo, nude mice
# condition_info: female, CAnN.Cg-Foxn1nu/Crl nude, mouse, tumor (WM983-B human melanoma xenograft, oral, 2 g of anle138b/kg of food pellets); tumor from left dorsal side (218 mg); food pellets with 2 g/kg for seven days; read-out: level in the tumor
reported_property: concentration at 7 days (µM)
API: value field is a number in µM; no unit string.

Given the entry Brc1cccc(-c2cc(-c3ccc4c(c3)OCO4)n[nH]2)c1 [anle138b] , report its measured concentration at 7 days.
110
